# system.tested: T1, hIL-4Rα on cells (human, UniProt P24394 26-825)
# T1 sequence: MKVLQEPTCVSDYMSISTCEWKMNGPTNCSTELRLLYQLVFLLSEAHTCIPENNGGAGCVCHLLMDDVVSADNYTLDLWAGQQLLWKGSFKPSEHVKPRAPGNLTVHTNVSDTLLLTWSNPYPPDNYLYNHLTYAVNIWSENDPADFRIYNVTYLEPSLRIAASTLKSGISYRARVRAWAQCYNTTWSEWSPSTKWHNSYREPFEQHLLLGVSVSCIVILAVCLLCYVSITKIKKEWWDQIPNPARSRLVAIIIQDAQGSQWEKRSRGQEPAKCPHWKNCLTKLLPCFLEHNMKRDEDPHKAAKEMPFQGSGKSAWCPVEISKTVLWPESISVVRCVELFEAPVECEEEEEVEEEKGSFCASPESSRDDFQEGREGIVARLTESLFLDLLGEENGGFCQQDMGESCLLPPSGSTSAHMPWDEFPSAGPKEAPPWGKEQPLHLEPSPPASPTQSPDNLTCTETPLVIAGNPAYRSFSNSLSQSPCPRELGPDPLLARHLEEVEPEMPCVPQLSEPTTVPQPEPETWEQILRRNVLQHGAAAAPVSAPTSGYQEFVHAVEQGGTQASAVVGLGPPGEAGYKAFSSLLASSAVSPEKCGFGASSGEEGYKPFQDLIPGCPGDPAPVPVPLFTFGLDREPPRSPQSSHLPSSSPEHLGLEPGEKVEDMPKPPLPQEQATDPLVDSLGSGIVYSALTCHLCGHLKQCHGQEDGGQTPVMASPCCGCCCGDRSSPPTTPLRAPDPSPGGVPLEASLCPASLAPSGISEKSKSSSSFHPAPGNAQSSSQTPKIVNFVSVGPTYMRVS
# method: cell-based or functional assay
Property: Relative Inhibition of IL-4 induced TARC IC50; scope: individual binders

Example cases with answers are listed next.
Construct 44 (mAb485) (antibody, IgG4, V domains shown, VH/VL only) VH: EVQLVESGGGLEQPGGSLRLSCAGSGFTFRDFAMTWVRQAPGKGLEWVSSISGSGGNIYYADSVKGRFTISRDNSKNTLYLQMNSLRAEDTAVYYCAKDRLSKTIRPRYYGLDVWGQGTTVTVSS VL: DIVMTQSPLSLPVTPGEPASISCRSTQSLLYSIGKNYVDWYLQKSGQSPQLLIYEGNNRASGVPDRFSGSGSGTDFTLKISRVEAEDVGFYYCMQSLTSPYTFGQGTKLEIK | 2.53 relative to dupilumab
Construct 23 (mAb431) (antibody, V domains shown, VH/VL only) VH: EVQLVESGGGLEQPGGSLRLSCAGSGFTFRDFAMTWVRQAPGKGLEWVSSISGGGGSTYYADSVKGRFTISRDNSKNTLYLQMNSLRAEDTAVYYCAKDRLSVTVRPRYYGLDVWGQGTTVTVSS VL: DIVMTQSPLSLPVTPGEPASISCRSSQSVLYSIGKNYVDWYLQKSGQSPQLLIYLGSQRATGVPDRFSGSGSGTDFTLKISRVEAEDVGFYYCMQSLTSPYTFGQGTKLEIK | 0.557 relative to dupilumab

Shift focus to the following entry.
Query: Endpoint output: Relative Inhibition of IL-4 induced TARC IC50 of Construct 25 (mAb433) (antibody, IgG4, V domains shown, VH/VL only) VH: EVQLVESGGGLEQPGGSLRLSCAGSGFTFRDFAMTWVRQAPGKGLEWVSSISGSGDNIYYADSVKGRFTISRDNSKNTLYLQMNSLRAEDTAVYYCAKDRLSKTIRPRYYGLDVWGQGTTVTVSS VL: DIVMTQSPLSLPVTPGEPASISCTASQSLLYSIGYNYLDWYLQKSGQSPQLLIYEGNKRASGVPDRFSGSGSGTDFTLKISRVEAEDVGFYYCMQSLTSPYTFGQGTKLEIK . Value?
Response: 1.17 relative to dupilumab
